# assay_protocol: FRG1 promoter luciferase signal modulators, primary screen, FRG1 inhibition for FSHD, cell-based, C2C12 myotubes, firefly/Renilla luciferase, luminescence (AID 1084)
# experimental_setup: higher = more signal, called active from +8 up or from −8 down
observable: z-score
Please reply with the number alone, leaving off any unit.

Sample answers from the record:
>>> result("C=CC[C@@]1(C(=O)NCC(O)CO)N=C(c2ccc(OCCCO)cc2)O[C@@H]1c1ccccc1CN=[N+]=[N-] (stereo partly drawn)")
-2.68
>>> result("CCOC(=O)C[C@H]1[C@H](OC(=O)c2cc3ccccc3oc2=O)[C@@H](NC(=O)c2ccc3ccccc3c2)c2cc(OCCCO)ccc2N1C(=O)c1ccc2ccccc2n1")
-0.881
>>> result("C[C@]1(C(=O)NCc2ccccc2)c2ccccc2C(=O)N(Cc2cc(C(F)(F)F)cc(C(F)(F)F)c2)[C@H]1c1ccc(CO)cc1")
-1.65
>>> result("C=CC[C@@]1(C(=O)N2CCOCC2)N=C(c2ccc(OCCCO)cc2)O[C@@H]1c1ccccc1")
-1.36
>>> result("O=C/C=C/c1ccc(/C=C/c2ccccc2)cc1")
3.71
>>> result("O=[N+]([O-])c1ccc(C[n+]2ccc3ccc(O)cc3c2)o1")
0.468

// z-score lookup, compound = CO[C@H]1COC(=O)[C@@H](C)COC(=O)[C@H](Cc2ccccc2)NC(=O)CC=C[C@H]1C , result: -0.117

// z-score lookup, compound = CC(C)=C1C(=O)C(c2ccccc2)=C2CN3C(=O)N(CCc4ccccc4)C(=O)[C@]3(Cc3ccccc3)[C@H]21 , result: 0.438

---

# assay_protocol: small-molecule binders of probe aNOTCH3, primary screen, biochemical, small-molecule microarray, 635/667 nm fluorescence (AID 1120);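 further: probe is a biotin-tagged antibody raised against NOTCH3 rather than NOTCH3 protein; score merges spot fluorescence near 667 nm with spot signal to noise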
# experimental_setup: higher = more signal
observable: composite z-score

>>> result("CC(C)[Si](OCCCNS(=O)(=O)c1ccc(Br)cc1)(C(C)C)C(C)C")
0.107
>>> result("CO[C@]12C=C(Br)[C@@H](C[C@@H]1c1ccccc1)[C@@]1(CO1)C2=O")
0.0773
>>> result("C=CC[C@@]12N=C(c3ccc(OCCCO)cc3)O[C@@H]1c1ccccc1CN(Cc1ccccc1)C2=O")
0.0242
>>> result("CCN1C(C)=C(C(=O)OC)[C@@H](c2ccccc2)N2C(=O)[C@@]3(C(=O)OC)O[C@@]12[C@@H]1C(=O)N(c2ccccc2)C(=O)[C@@H]13")
-0.055

// composite z-score lookup, molecule = O=C1NC(=O)C2C1C=CC(C(O)C=Cc1ccc([N+](=O)[O-])cc1)N2Nc1ccccn1 (stereo unspecified) , result: 0.0104

// composite z-score lookup, molecule = Cc1ccc(S[C@]2(C(=O)NC(C)C)CC(=O)N(Cc3cc(C(F)(F)F)cc(C(F)(F)F)c3)[C@@H]2c2ccc(CO)cc2I)cc1 , result: -0.313

// composite z-score lookup, molecule = NC(=O)NCC#Cc1ccc2c(c1)[C@]1(C(=O)N2)[C@H](c2ccccc2OCCO)N2[C@H](c3ccccc3)[C@H](c3ccccc3)OC(=O)[C@H]2[C@@H]1C(=O)N1CCN(c2ncccn2)CC1 , result: 0.0539

// composite z-score lookup, molecule = CN1C(=O)C2C=CC(C(O)C3CC=CCC3)N(Nc3ccccc3)C2C1=O (stereo unspecified) , result: 0.351

// composite z-score lookup, molecule = C=CC[C@]1(C(N)=O)N=C(c2ccc(OCCCO)cc2)O[C@H]1c1ccccc1CN=[N+]=[N-] , result: -0.0502

// composite z-score lookup, molecule = Cc1ccccc1C(O)C1C=CC2C(=O)N(c3ccccc3)C(=O)C2N1Nc1ccc(C#N)cc1 (stereo unspecified) , result: 0.841

// composite z-score lookup, molecule = O=C/C=C/c1ccccc1Cl , result: -0.0259

// composite z-score lookup, molecule = O=C1C[C@@](C(=O)NCCN2CCOCC2)(c2ccc([N+](=O)[O-])cc2)[C@@H](c2ccc(CO)cc2)N1C1CCCCC1 , result: 0.0597

// composite z-score lookup, molecule = CC(C)CN1C(=O)[C@@]2(Cc3ccccc31)c1ccccc1C(=O)N(C1CCCCC1)[C@H]2c1ccc(CO)cc1 , result: -0.0647

---

# System: Human papillomavirus type 1a protein E7 (residues 44-93)
# assay_protocol: HPV1a E7 fragment binders on microarrays, primary screen, biochemical, small-molecule microarray, residues 44-93, 635 nm fluorescence (AID 1108);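 further: E7 fragment applied at 1 µg/mL in TBST for 1 h at 4 C; score combines spot fluorescence with its signal to noise ratio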
# experimental_setup: small-molecule microarray binding, fluorescence 635 nm; higher = more signal
Class field: derived from composite z-score; ranges one (below -0.1), two (-0.1 to below 0.6), three (0.6 or more)

Previously resolved entries follow.
>>> assigned_class("C=C(COC)/C(=C/C[C@H](OC(C)=O)c1ccc(OCCO)cc1)c1cnc2ccccc2c1")
"two"
>>> assigned_class("O=C(CS)NCCCCCNC(=O)[C@H]1C[C@H]2C(=O)N3CCC[C@H]3C(=O)N2[C@H]1c1ccc(O)cc1")
"one"

Below: the item to evaluate.
Task: Would you mind sorting COC(=O)C[C@H]1O[C@]2(C(=O)N(C)c3ccccc32)[C@@H](C)[C@@H]1[Si](C)(C)c1ccc(OC)cc1 into the appropriate category?
Result: two

---

# system_under_test: Dihydroorotate dehydrogenase (quinone), mitochondrial (Plasmodium falciparum (isolate 3D7))
# assay_protocol: PfDHODH enzyme inhibitors, primary screen, biochemical, C-terminal His tag, absorbance 600 nm (AID 1175);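 further: recombinant parasite enzyme with a five histidine tag at its C terminus; test concentration not given here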
# experimental_setup: DCIP absorbance 600 nm, higher = more signal, called active from +8 up or from −8 down
observable: composite z-score
Please reply with the number alone, leaving off any unit.

// composite z-score lookup, compound = COc1ccc([Si](C)(C)[C@H]2[C@H](CC(=O)N3Cc4ccccc4C[C@H]3CO)O[C@@]3(C(=O)N(Cc4cccc(N5CCOC5=O)c4)c4ccccc43)[C@@H]2C)cc1 , result: -0.135

// composite z-score lookup, compound = CO[C@H]1O[C@H](CO)[C@@H](OC(=O)CCc2ccccc2)[C@@H]2OC(=O)[C@H](Cc3cccc(Br)c3)C/C=C/C[C@@H](Cc3cccc(Br)c3)C(=O)O[C@@H]12 , result: -0.578

// composite z-score lookup, compound = C=CCC(OC(C)=O)[C@@H]1[C@@H](N(Cc2ccc(-c3ccccc3)cc2)C(=O)c2ccc(C)cc2)c2cc(OCCCO)ccc2N1C(=O)c1ccc(-c2ccccc2)cc1 (stereo partly specified) , result: -1.08

---

# assay_protocol: E. coli acrAB mutant growth effects, primary screen, E. coli filamentation inducers, strain DRC39, OD650, 48 h (AID 1179);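 further: screen aims at cell division blockers that make cells filament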
# experimental_setup: E. coli DRC39 delta-acrAB growth, higher = more signal, called active from +8 up or from −8 down
Reported z-score values for a set of compounds
Please reply with the number alone, leaving off any unit.

Sample answers from the record:
>>> result("COc1ccc([C@H]2C[C@H]3C(Br)=C[C@]2(OC)C(=O)[C@]32CO2)cc1")
0.205
>>> result("Cc1ccc(S[C@]2(C(=O)NC3CC3)CC(=O)N(Cc3cc(C(F)(F)F)cc(C(F)(F)F)c3)[C@@H]2c2ccc(CO)cc2)cc1")
0.561

// next item, z-score requested
// z-score lookup, compound = COCCOC(=O)N1C(=O)[C@@]2(c3cc(C#CCNC(N)=O)ccc31)[C@H](c1ccc(OCCO)cc1)N1[C@H](c3ccccc3)[C@H](c3ccccc3)OC(=O)[C@H]1[C@@H]2C(=O)N1CCCCCCC1 , result: 0.538

---

Reported composite z-score values for a set of molecules
# system_under_test: Dickkopf-related protein 1 (Homo sapiens)
# assay_protocol: DKK1 binders on small-molecule microarrays, primary screen, biochemical, small-molecule microarray, 635 nm fluorescence scan (AID 1106);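 further: score merges emission near 667 nm with signal to noise over three replicate slides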
# experimental_setup: DKK1 binding, higher = more signal

Sample answers from the record:
>>> result("CC[C@H]1C2=C3C(CC[C@H]4C(OC)OC[C@](C)([C@@H]34)N(C(=O)OC(C)(C)C)C2)C(CO)C1CO (some centres not stated)")
-0.212
>>> result("CO[C@H]1COC(=O)[C@@H](OCc2ccccc2)C=C[C@H](C)[C@@H](OC)COC(=O)[C@H](OCc2ccccc2)C=C[C@@H]1C")
0.123
>>> result("CC(=O)NCCCC[C@@H]1NC(=O)[C@@H]2C[C@H](C(=O)NCc3ccc(F)cc3)[C@H](c3cccc(OCCO)c3)N2C1=O")
-0.047
>>> result("COC(=O)C1=CC(c2ccc(CO)cc2)=CC(C2CC2)N(Cc2sc3ccccc3c2Cl)C=C1C(=O)OC (configuration not stated)")
0.304
>>> result("CC(C)C[C@@H]1NC(=O)[C@H](CC(C)C)NC(=O)[C@@]23C(=O)N[C@@H](Cc4ccccc4)C2[C@H](C)[C@@]2(C)O[C@H]2C3/C=C/CC/C=C/CNC1=O (some centres not stated)")
1.19
>>> result("Cc1ccc(S(=O)(=O)N[C@H]2COC(=O)CC=C[C@H](C)COC(=O)N[C@@H](C)C(=O)CC=C[C@@H]2C)cc1")
2.08

// next item, composite z-score requested
Note to self: composite z-score of COc1ccc(-c2cc3c(c(-c4ccccc4)n2)[Si](C(C)C)(C(C)C)O[C@H]3c2ccccc2)cn1 with Dickkopf-related protein 1 (Homo sapiens) was 0.0263
